# EXPERIMENT_DESCRIPTION: Solubility of the compound in acetic acid
# Assay type: physicochemical
PROPERTY_MEASURED: solubility

>>> print(df.to_string())
                                   compound  property_measured     result
0  CN(C)c1ccc(/C=N/NC(=O)Nn2c(-c3ccccc3)nc3ccccc3c2=O)cc1         solubility  Insoluble
1  O=C(N/N=C1/C(=O)Nc2ccccc21)Nn1c(-c2ccccc2)nc2ccccc2c1=O         solubility    soluble
2  CC12CCC(C/C1=N/NC(=O)Nn1c(-c3ccccc3)nc3ccccc3c1=O)C2(C)C (stereo not given)         solubility  Insoluble
3  O=C(NN=C(c1ccccc1)c1ccccc1)Nn1c(-c2ccccc2)nc2ccccc2c1=O         solubility  Insoluble
4  COc1cc(/C=N/NC(=O)Nn2c(-c3ccccc3)nc3ccccc3c2=O)ccc1O         solubility    soluble

Origin of the recorded values: ChEMBL document CHEMBL3046426
